# TARGET OR TEST SYSTEM: CaV2.2 (Homo sapiens, UniProt Q00975)
# Construct: expressed in transfected cells; host or cells: HEK293
# Sequence (Q00975 whole entry): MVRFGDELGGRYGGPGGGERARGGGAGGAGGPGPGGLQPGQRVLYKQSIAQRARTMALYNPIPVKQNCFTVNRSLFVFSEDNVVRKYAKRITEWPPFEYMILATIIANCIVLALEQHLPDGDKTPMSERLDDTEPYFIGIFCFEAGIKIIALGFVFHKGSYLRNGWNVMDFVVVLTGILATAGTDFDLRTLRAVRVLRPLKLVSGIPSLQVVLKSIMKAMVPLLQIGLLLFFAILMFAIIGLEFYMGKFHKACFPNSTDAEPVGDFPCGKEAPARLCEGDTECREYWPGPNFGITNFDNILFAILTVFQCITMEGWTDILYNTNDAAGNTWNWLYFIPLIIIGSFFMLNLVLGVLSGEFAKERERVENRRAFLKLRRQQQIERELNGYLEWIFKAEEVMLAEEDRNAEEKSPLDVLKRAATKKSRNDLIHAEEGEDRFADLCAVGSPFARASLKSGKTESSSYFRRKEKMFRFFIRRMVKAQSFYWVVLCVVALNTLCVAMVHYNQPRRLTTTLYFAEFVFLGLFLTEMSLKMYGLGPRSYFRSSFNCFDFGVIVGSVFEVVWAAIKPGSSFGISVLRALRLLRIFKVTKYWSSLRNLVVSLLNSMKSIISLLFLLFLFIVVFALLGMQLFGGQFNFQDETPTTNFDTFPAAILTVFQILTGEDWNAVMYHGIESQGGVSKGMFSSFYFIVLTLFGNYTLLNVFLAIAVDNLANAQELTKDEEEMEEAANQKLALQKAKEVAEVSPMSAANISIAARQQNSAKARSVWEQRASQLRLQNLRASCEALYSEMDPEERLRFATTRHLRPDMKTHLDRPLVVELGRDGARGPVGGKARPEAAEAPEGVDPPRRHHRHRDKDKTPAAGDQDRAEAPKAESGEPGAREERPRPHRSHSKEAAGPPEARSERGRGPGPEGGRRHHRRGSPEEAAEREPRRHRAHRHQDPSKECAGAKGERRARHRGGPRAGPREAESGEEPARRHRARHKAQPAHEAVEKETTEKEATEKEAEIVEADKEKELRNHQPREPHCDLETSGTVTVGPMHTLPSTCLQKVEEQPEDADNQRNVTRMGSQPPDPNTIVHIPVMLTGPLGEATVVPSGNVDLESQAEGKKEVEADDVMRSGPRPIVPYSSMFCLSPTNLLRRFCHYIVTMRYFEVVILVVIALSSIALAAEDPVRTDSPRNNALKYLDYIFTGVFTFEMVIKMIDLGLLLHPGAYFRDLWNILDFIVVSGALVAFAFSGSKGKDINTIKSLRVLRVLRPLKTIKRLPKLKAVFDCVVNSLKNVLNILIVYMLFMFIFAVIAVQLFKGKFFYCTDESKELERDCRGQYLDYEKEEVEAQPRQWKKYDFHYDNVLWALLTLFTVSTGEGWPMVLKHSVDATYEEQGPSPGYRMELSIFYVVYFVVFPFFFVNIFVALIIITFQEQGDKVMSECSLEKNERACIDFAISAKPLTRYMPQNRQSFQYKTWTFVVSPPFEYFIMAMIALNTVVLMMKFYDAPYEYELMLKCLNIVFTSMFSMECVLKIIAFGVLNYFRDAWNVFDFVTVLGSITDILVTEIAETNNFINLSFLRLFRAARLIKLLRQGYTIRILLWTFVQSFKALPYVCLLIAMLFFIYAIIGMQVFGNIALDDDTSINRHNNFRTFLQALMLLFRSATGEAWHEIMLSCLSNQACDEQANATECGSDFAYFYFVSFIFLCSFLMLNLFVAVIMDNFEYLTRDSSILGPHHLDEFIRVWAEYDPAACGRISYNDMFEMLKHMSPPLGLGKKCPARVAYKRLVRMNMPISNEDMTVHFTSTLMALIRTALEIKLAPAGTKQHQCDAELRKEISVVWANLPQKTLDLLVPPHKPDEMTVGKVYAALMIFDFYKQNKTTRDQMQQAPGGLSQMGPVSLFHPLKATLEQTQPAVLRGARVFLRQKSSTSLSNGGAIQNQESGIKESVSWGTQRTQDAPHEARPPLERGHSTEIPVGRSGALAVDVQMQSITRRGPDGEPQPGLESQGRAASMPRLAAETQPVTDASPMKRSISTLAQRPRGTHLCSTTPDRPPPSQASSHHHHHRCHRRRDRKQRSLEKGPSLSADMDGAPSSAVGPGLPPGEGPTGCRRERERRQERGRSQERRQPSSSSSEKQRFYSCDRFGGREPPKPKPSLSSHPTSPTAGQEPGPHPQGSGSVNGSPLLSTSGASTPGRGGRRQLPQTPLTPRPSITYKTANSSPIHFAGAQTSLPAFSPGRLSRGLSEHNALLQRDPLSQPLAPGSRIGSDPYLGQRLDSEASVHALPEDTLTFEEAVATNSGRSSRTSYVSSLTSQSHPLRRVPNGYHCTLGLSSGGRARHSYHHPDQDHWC
# Sequence (P54284 whole entry partner): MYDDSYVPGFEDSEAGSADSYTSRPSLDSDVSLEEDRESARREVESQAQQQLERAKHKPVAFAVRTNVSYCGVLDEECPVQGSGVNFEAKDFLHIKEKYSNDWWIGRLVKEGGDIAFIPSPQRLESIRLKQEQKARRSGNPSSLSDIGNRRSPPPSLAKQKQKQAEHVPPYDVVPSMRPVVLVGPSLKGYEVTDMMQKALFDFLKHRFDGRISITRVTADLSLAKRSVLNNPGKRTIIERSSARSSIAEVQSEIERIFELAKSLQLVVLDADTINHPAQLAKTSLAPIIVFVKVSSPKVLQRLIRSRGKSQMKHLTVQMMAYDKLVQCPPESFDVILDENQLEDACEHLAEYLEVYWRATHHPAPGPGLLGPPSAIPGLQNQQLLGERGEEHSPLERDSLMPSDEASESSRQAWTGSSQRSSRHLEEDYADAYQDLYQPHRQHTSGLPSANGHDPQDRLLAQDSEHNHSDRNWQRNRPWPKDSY
# Sequence (P54289 25-946 partner limits assumed): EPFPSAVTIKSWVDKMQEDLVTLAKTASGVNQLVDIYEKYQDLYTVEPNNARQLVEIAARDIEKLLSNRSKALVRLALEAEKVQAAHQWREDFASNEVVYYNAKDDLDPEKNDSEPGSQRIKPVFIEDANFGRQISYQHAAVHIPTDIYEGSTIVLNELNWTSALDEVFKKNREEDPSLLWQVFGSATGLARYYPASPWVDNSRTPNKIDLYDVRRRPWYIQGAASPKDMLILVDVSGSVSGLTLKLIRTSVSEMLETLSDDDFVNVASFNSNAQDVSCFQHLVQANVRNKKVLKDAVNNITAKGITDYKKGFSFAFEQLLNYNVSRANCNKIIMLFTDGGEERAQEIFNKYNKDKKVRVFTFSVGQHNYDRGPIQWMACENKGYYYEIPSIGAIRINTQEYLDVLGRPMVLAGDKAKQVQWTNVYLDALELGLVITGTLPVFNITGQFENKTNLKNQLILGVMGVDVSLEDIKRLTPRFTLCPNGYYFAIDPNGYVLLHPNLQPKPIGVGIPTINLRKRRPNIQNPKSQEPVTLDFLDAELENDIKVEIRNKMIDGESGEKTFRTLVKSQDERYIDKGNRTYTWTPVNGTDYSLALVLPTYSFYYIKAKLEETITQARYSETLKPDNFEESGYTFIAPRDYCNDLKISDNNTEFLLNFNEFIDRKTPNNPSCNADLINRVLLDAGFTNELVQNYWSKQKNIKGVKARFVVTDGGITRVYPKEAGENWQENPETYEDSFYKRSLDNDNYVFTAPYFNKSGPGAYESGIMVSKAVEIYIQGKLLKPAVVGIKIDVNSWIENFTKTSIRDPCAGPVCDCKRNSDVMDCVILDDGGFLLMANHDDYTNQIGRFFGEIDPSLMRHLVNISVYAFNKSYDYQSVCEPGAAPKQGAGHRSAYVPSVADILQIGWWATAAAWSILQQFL
# Sequence (P54289 947-1103 partner limits assumed): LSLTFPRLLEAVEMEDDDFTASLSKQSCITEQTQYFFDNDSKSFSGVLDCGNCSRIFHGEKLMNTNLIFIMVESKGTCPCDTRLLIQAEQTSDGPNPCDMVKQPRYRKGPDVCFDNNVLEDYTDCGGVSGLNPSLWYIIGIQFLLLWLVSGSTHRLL
# METHOD DESCRIPTION: VIPR optical membrane potential assay with electrical stimulation
# Format: cell-based
# CONDITION INFO: Table 3, biological assay data; read-out: IC50
# Lookup of reported IC50 keyed by entry

The examples below pair each entry with its known result.
> print(dat)
                                   compound  measurement.label    observed
1  Cc1c(C(=O)NC2CC2)oc2ccc(S(=O)(=O)N(CCN(C)C)Cc3ccccc3)cc12 [compound 24]               IC50     < 20 µM
2  O=C(NC1CCCC1)c1cc2cc(S(=O)(=O)N3CCCCCC3)ccc2[nH]1 [compound 41]               IC50  5 to 20 µM
3  Cc1c(C(=O)NC2CC2)oc2ccc(S(=O)(=O)Nc3ncns3)cc12 [compound 316]               IC50     < 20 µM

Test item Cc1c(C(=O)N2CCN(C)CC2)[nH]c2ccc(S(=O)(=O)N3CCCCCC3)cc12 [compound 3] ; CaV2.2 (Homo sapiens, UniProt Q00975); reported IC50 was < 20 µM

Test item Cc1c(C(=O)N2CCC(C)CC2)oc2ccc(S(=O)(=O)N3CCC(C)CC3)cc12 [compound 128] ; CaV2.2 (Homo sapiens, UniProt Q00975); reported IC50 was 5 to 20 µM

Test item Cc1c(C(=O)NC2CCCCC2C)oc2ccc(S(=O)(=O)N3CCOCC3)cc12 (centres unmarked) [compound 123] ; CaV2.2 (Homo sapiens, UniProt Q00975); reported IC50 was 5 to 20 µM

Test item CC1CCN(S(=O)(=O)c2ccc3[nH]c(C(=O)N4CCCC4)cc3c2)CC1 [compound 104] ; CaV2.2 (Homo sapiens, UniProt Q00975); reported IC50 was 5 to 20 µM

Test item CCN(CC)C(=O)c1oc2ccc(S(=O)(=O)N3CC(C)CC(C)C3)cc2c1C (centres unmarked) [compound 423] ; CaV2.2 (Homo sapiens, UniProt Q00975); reported IC50 was < 5 µM

Test item Cc1c(C(=O)NC2CC2)oc2ccc(S(=O)(=O)N3CCC(C)CC3)cc12 [compound 395] ; CaV2.2 (Homo sapiens, UniProt Q00975); reported IC50 was 5 to 20 µM

Test item Cc1c(C(=O)NCC2CCCO2)oc2ccc(S(=O)(=O)N3CCC(C)CC3)cc12 (centres unmarked) [compound 238] ; CaV2.2 (Homo sapiens, UniProt Q00975); reported IC50 was 5 to 20 µM

Test item CC1CC(C)CN(S(=O)(=O)c2ccc3[nH]c(C(=O)N4CCCCC4)cc3c2)C1 (centres unmarked) [compound 389] ; CaV2.2 (Homo sapiens, UniProt Q00975); reported IC50 was < 5 µM

----------
# Lookup of reported IC50 keyed by entry
# TARGET OR TEST SYSTEM: CaV2.2 (Homo sapiens, UniProt Q00975)
# Construct: expressed in transfected cells; host or cells: HEK293
# METHOD DESCRIPTION: VIPR optical membrane potential assay with electrical stimulation
# Assay type: cell-based
# CONDITION INFO: Table 3, biological assay data; read-out: IC50

The examples below pair each entry with its known result.
> print(dat)
                                   compound  measurement.label    observed
1  Cc1c(C(=O)NC2CCCC(C)C2C)oc2ccc(S(=O)(=O)N3CCOCC3)cc12 (centres unmarked)               IC50  5 to 20 µM
2  CC1CC(C)CN(C(=O)c2cc3cc(S(=O)(=O)N4CC(C)CC(C)C4)ccc3[nH]2)C1 (centres unmarked)               IC50      < 5 µM
3  Cc1c(C(=O)N(C)C)oc2ccc(S(=O)(=O)N3CCOCC3)cc12               IC50     < 20 µM
4  Cc1c(C(=O)NCC2CCCO2)oc2ccc(S(=O)(=O)N3CCCC(C)C3)cc12 (centres unmarked)               IC50  5 to 20 µM
5  CCN(CC)S(=O)(=O)c1ccc2oc(C(=O)NC3CCCC3)c(C)c2c1               IC50      < 5 µM
6  Cc1c(C(=O)NC(C)c2ccccc2)oc2ccc(S(=O)(=O)N3CCCC3)cc12 (centres unmarked)               IC50     < 20 µM

The reported IC50 of the compound Cc1c(C(=O)NCCc2ccccc2)oc2ccc(S(=O)(=O)N3CCCCCC3)cc12 was < 5 µM

The reported IC50 of the compound Cc1c(C(=O)NCc2ccccc2)oc2ccc(S(=O)(=O)N3CCCCC3)cc12 was 5 to 20 µM

The reported IC50 of the compound CC1CC(C)CN(S(=O)(=O)c2ccc3oc(C(=O)N(C)Cc4ccccc4)cc3c2)C1 (centres unmarked) was < 5 µM

The reported IC50 of the compound Cc1c(C(=O)NC2CC2)oc2ccc(S(=O)(=O)N3CCCC3)cc12 was < 20 µM

----------
# TARGET OR TEST SYSTEM: CaV2.2 (Homo sapiens, UniProt Q00975)
# Construct: expressed in transfected cells; host or cells: HEK293
# METHOD DESCRIPTION: VIPR optical membrane potential assay with electrical stimulation
# Format: cell-based
# CONDITION INFO: Table 3, biological assay data; read-out: IC50
pIC50: −log10 of the molar value.
# Lookup of reported pIC50 keyed by entry

The examples below pair each entry with its known result.
> print(dat)
                                   compound      observed
1  Cc1c(C(=O)NCc2ccccc2)oc2ccc(S(=O)(=O)N3CC(C)CC(C)C3)cc12 (centres unmarked) [compound 441]        > 5.30
2  CCCCN(C)C(=O)c1cc2cc(S(=O)(=O)N3CCC(C)CC3)ccc2[nH]1 [compound 141]        > 5.30
3  Cc1c(C(=O)N2CCN(C)CC2)oc2ccc(S(=O)(=O)N3CC(C)CC(C)C3)cc12 (centres unmarked) [compound 193]  4.70 to 5.30
4  CC1CC(C)CN(S(=O)(=O)c2ccc3oc(C(=O)N4CCCCCC4)cc3c2)C1 (centres unmarked) [compound 240]        > 5.30
5  O=C(NCCc1ccccc1)c1cc2cc(S(=O)(=O)N3CCCCCC3)ccc2o1 [compound 48]        > 5.30
6  CCN1CCN(C(=O)c2oc3ccc(S(=O)(=O)N4CCCCCC4)cc3c2C)CC1 [compound 70]  4.70 to 5.30

The reported pIC50 of the compound COc1ccccc1CNC(=O)c1oc2ccc(S(=O)(=O)N3CCCCCC3)cc2c1C [compound 245] was 4.70 to 5.30

The reported pIC50 of the compound Cc1c(C(=O)NC2CCCCC2)oc2ccc(S(=O)(=O)N3CCCCC3)cc12 [compound 459] was 4.70 to 5.30

----------
# TARGET OR TEST SYSTEM: CaV2.2 (Homo sapiens, UniProt Q00975)
# Construct: expressed in transfected cells; host or cells: HEK293
# METHOD DESCRIPTION: VIPR optical membrane potential assay with electrical stimulation
# Format: cell-based
# CONDITION INFO: Table 3, biological assay data; read-out: IC50
pIC50: −log10 of the molar value.
# Lookup of reported pIC50 keyed by entry

> print(dat)
                                   compound  measurement.label      observed
1  CCN(CC)C(=O)c1cc2cc(S(=O)(=O)N3CCC(C)CC3)ccc2n1C              pIC50        > 5.30
2  Cc1c(C(=O)N(C(C)C)C(C)C)oc2ccc(S(=O)(=O)N3CCC(C)CC3)cc12              pIC50  4.70 to 5.30
3  CCCN(c1ccc2[nH]c(C(=O)NC3CC3)cc2c1)S(=O)(=O)c1ccccc1              pIC50  4.70 to 5.30
4  CC1CC(C)CN(S(=O)(=O)c2ccc3oc(C(=O)NCC4CCOCC4)cc3c2)C1 (centres unmarked)              pIC50        > 5.30

The reported pIC50 of the compound O=C(NCCc1ccccc1)c1cc2cc(S(=O)(=O)N3CCCCCC3)ccc2[nH]1 was > 5.30

The reported pIC50 of the compound Cc1c(C(=O)NCc2ccccn2)oc2ccc(S(=O)(=O)N3CCC(C)CC3)cc12 was 4.70 to 5.30

The reported pIC50 of the compound Cc1c(C(=O)N2CCCC2)oc2ccc(S(=O)(=O)N3CCCCCC3)cc12 was > 4.70

The reported pIC50 of the compound CC1CCN(S(=O)(=O)c2ccc3[nH]cc(C(=O)N4CCN(C)CC4)c3c2)CC1 was > 4.70

The reported pIC50 of the compound CCN(CC)S(=O)(=O)c1ccc2oc(C(=O)N3CCCCCC3)c(C)c2c1 was 4.70 to 5.30

The reported pIC50 of the compound O=C(NCCC1CCOCC1)c1cc2cc(S(=O)(=O)N3CCCCCC3)ccc2[nH]1 was > 5.30

The reported pIC50 of the compound Cc1c(C(=O)N2CCCC(C)C2)[nH]c2ccc(S(=O)(=O)N3CCC(C)CC3)cc12 (centres unmarked) was > 5.30

The reported pIC50 of the compound Cc1c(C(=O)N2CCN(C)CC2)oc2ccc(S(=O)(=O)N3CCCC(C)C3)cc12 (centres unmarked) was 4.70 to 5.30

The reported pIC50 of the compound Cc1c(C(=O)N(C)Cc2ccccc2)oc2ccc(S(=O)(=O)N3CCCCC3)cc12 was > 5.30

The reported pIC50 of the compound Cc1c(C(=O)N2CCCCC2C)oc2ccc(S(=O)(=O)N3CCOCC3)cc12 (centres unmarked) was > 4.70

The reported pIC50 of the compound CNC(=O)c1cc2cc(S(=O)(=O)N3CCCCCC3)ccc2[nH]1 was > 5.30

The reported pIC50 of the compound CCOC(=O)N1CCN(C(=O)c2oc3ccc(S(=O)(=O)N4CCCCCC4)cc3c2C)CC1 was > 5.30

The reported pIC50 of the compound Cc1c(C(=O)N2CCCC(C)C2)[nH]c2ccc(S(=O)(=O)N3CC(C)CC(C)C3)cc12 (centres unmarked) was > 5.30
